target: FGFR1 in recombinant human FGFR1/FGF2 complex (Homo sapiens); construct: made in house; host or cells: Escherichia coli BL21 (DE3) Star; assay: Thermal shift assay (TSA), ΔTm of FGFR1 peak; format: binding; conditions: 50 μM compound
Sequence (P11362 142-365 limits assumed): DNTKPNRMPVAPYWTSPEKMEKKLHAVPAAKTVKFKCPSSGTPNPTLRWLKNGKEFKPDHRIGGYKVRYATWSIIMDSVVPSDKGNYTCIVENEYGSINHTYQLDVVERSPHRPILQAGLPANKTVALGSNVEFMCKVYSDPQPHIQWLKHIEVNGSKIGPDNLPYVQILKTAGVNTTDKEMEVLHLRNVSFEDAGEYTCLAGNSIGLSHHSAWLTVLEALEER
Sequence (P09038 156-288 partner limits assumed): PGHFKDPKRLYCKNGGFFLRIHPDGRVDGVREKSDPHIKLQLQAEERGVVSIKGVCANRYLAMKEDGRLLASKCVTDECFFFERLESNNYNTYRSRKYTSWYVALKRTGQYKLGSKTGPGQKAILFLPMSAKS
Overview of recorded ΔTm at 50 µM for various molecules
Please state the number and follow it with the unit.

Recorded ΔTm at 50 µM, per entry:
[[record]]
molecule = "O=Cc1cccc(F)c1"
measurement = "4 °C"

[[record]]
molecule = "CCN(CC)c1ccc(/C=N/c2ccc(C(F)(F)F)cc2)cc1"
measurement = "7.8 °C"

[[record]]
molecule = "CCN(CC)c1ccc(C2N[C@@H](C(=O)O)C(C)(C)S2)cc1 (stereo partly shown) [Compound 11o]"
measurement = "2 °C"


Now take the following molecule into account.
input: What does the data say about its ΔTm at 50 µM? Entry: CCN(CC)c1ccc(/C=N/NC(=O)CN(C)C)cc1 [Compound 13oa]
output: 0 °C

###

Overview of recorded ΔTm at 100 µM for various compounds
molecular target: FGF2 in recombinant human FGFR1/FGF2 complex (Homo sapiens, UniProt P09038); construct: made in house; host or cells: Escherichia coli BL21 (DE3) Star; experiment: Thermal shift assay (TSA), ΔTm of FGF2 peak; assay type: binding; conditions: 100 μM compound; read-out: ΔTm (° C.) −FGF2
Just the number please, in °C, no unit attached.

[[record]]
compound = "CCN(CC)c1ccc(/C=N/N2CCN(C(c3ccccc3)c3ccccc3)CC2)cc1 [Compound 15oa]"
measurement_units = "°C"
measurement = -1.5


input: What does the data say about its ΔTm at 100 µM? Entry: CCN(CC)c1ccc(C(=O)O)cc1 [Compound 17]
output: 0

input: What does the data say about its ΔTm at 100 µM? Entry: O=Cc1ccc(F)cc1 [Compound 1b]
output: 1

input: What does the data say about its ΔTm at 100 µM? Entry: O=Cc1ccccc1F [Compound 1e]
output: 0.3

###

Overview of recorded ΔTm at 10 µM for various compounds
target: FGFR1 in recombinant human FGFR1/FGF2 complex (Homo sapiens); construct: made in house; host or cells: Escherichia coli BL21 (DE3) Star; experiment: Thermal shift assay (TSA), ΔTm of FGFR1 peak; assay type: binding; conditions: 10 μM compound; read-out: ΔTm (° C.) −FGFR1
Just the number please, in °C, no unit attached.

[[record]]
compound = "CCN(CC)c1ccc(/C=N/Nc2ccc(C#N)cc2)cc1 [Compound 15od]"
measured_metric = "ΔTm at 10 µM"
measurement_units = "°C"
measurement = 0

[[record]]
compound = "O=C(c1ccccc1)c1cccc(F)c1"
measured_metric = "ΔTm at 10 µM"
measurement_units = "°C"
measurement = 9.8

[[record]]
compound = "CCN(CC)c1ccc(/C=N/NC(=O)C2CCN(CCO)CC2)cc1 [Compound 13oh]"
measured_metric = "ΔTm at 10 µM"
measurement_units = "°C"
measurement = 0.6

[[record]]
compound = "CCN(CC)c1ccc(C(=O)c2ccccc2)cc1"
measured_metric = "ΔTm at 10 µM"
measurement_units = "°C"
measurement = 6


Now take the following compound into account.
input: What does the data say about its ΔTm at 10 µM? Entry: CCN(CC)c1ccc(/C=N/NC(=O)c2ccc(O)cc2)cc1 [Compound 13oe]
output: -1.5
